Test system: 299254-011-R-J1-PDC complex spheroid viability
Test: Anticancer human tumor 299254-011-R-J1-PDC patient-derived melanoma cell line growth inhibition [POLQ]
Conditions: second compound 0.1 µM; first compound 0.0316 µM; stronger effect = lower value
experimental-readout: viability, T/C

compound: C=CC(=O)N1CCN(c2nc(=O)n(-c3c(C)ccnc3C(C)C)c3nc(-c4c(O)cccc4F)c(F)cc23)C(C)C1 (stereo unspecified) + Cc1cccc(N(C)C(=O)C2C(O)CCN2c2nc(C)cc(C(F)(F)F)c2C#N)c1
viability, T/C: 85.2%
--
compound: Nc1ccn(C2OC(CO)C(O)C2(F)F)c(=O)n1 (stereo unspecified) + COC1C(OC(N)=O)C(O)C(Oc2ccc3c(O)c(NC(=O)c4ccc(O)c(CC=C(C)C)c4)c(=O)oc3c2C)OC1(C)C
viability, T/C: 60.1%
--
compound: CCc1cc2c(N3CCc4c(cc(Cn5ccnc5)cc4-c4cn(C)nc4C(F)(F)F)C3=O)ccnc2c(OC)n1 + COC1C(OC(N)=O)C(O)C(Oc2ccc3c(O)c(NC(=O)c4ccc(O)c(CC=C(C)C)c4)c(=O)oc3c2C)OC1(C)C
viability, T/C: 110%
--
compound: O=C(Nc1ccc(O)c(NS(=O)(=O)c2ccc(F)cc2)c1)c1ccc(-c2ccccc2)cc1 + Cc1cccc(N(C)C(=O)C2C(O)CCN2c2nc(C)cc(C(F)(F)F)c2C#N)c1
viability, T/C: 105%
--
compound: CC[C@@]1(O)C(=O)OCc2c1cc1n(c2=O)Cc2cc3c(CN(C)C)c(O)ccc3nc2-1 + Cc1cccc(N(C)C(=O)C2C(O)CCN2c2nc(C)cc(C(F)(F)F)c2C#N)c1
viability, T/C: 113%
--
compound: O=c1[nH]cc(F)c(=O)[nH]1 + Nc1ccc(C#CCN(C(=O)Cc2ncc(C(F)(F)F)cc2C(F)(F)F)c2ccc(F)cc2)nn1
viability, T/C: 103%

Req: Which viability, T/C reading was recorded for the compound Cn1ncnc1[C@H]1c2n[nH]c(=O)c3cc(F)cc(c23)N[C@@H]1c1ccc(F)cc1 + Cc1cccc(N(C)C(=O)C2C(O)CCN2c2nc(C)cc(C(F)(F)F)c2C#N)c1 ?
Resp: 114%

Req: Another compound to check: CC1COCCN1c1cc(-c2ccnn2C)c2ccnc(-c3ccn[nH]3)c2n1 (stereo unspecified) + Nc1ccc(C#CCN(C(=O)Cc2ncc(C(F)(F)F)cc2C(F)(F)F)c2ccc(F)cc2)nn1
Resp: 102%

Req: # repeat for CCCS(=O)(=O)Nc1ccc(F)c(C(=O)c2c[nH]c3ncc(-c4ccc(Cl)cc4)cc23)c1F + COC1C(OC(N)=O)C(O)C(Oc2ccc3c(O)c(NC(=O)c4ccc(O)c(CC=C(C)C)c4)c(=O)oc3c2C)OC1(C)C
Resp: 111%

Req: Query CNCc1ccc(-c2[nH]c3cc(F)cc4c3c2CCNC4=O)cc1 + Cc1cccc(N(C)C(=O)C2C(O)CCN2c2nc(C)cc(C(F)(F)F)c2C#N)c1 next
Resp: 102%

Req: Entry CC1COCCN1c1cc(C2(S(C)(=N)=O)CC2)nc(-c2ccnc3[nH]ccc23)n1 (stereo unspecified) + Nc1ccc(C#CCN(C(=O)Cc2ncc(C(F)(F)F)cc2C(F)(F)F)c2ccc(F)cc2)nn1 please
Resp: 117%

---

Test system: 299254-011-R-J1-PDC complex spheroid viability
Assay: Anticancer human tumor 299254-011-R-J1-PDC cell line growth inhibition [POLQ];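 note: spheroids exposed to drugs for one week before measurement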
Conditions: curve of first compound; second compound 1 µM
pIC50: −log10 of the molar value.
experimental-readout: pIC50

Some entries whose results are on file:
compound: O=C(c1cc(Cc2n[nH]c(=O)c3ccccc23)ccc1F)N1CCN(C(=O)C2CC2)CC1 + Nc1ccc(C#CCN(C(=O)Cc2ncc(C(F)(F)F)cc2C(F)(F)F)c2ccc(F)cc2)nn1
pIC50: < 5.00
//
compound: CNCc1ccc(-c2[nH]c3cc(F)cc4c3c2CCNC4=O)cc1 + Nc1ccc(C#CCN(C(=O)Cc2ncc(C(F)(F)F)cc2C(F)(F)F)c2ccc(F)cc2)nn1
pIC50: < 5.00
//
compound: CC[C@@]1(O)C(=O)OCc2c1cc1n(c2=O)Cc2cc3c(CN(C)C)c(O)ccc3nc2-1 + Cc1cccc(N(C)C(=O)C2C(O)CCN2c2nc(C)cc(C(F)(F)F)c2C#N)c1
pIC50: < 7.00
//
compound: CC1COCCN1c1cc(C2(O)CC3CCC(C2)O3)c2cnn(-c3ccn[nH]3)c2n1 (stereo not given) + COC1C(OC(N)=O)C(O)C(Oc2ccc3c(O)c(NC(=O)c4ccc(O)c(CC=C(C)C)c4)c(=O)oc3c2C)OC1(C)C
pIC50: 6.79

Now look at this entry.
Req: Returns the measured pIC50 for the input compound. Input: CNCc1ccc(-c2[nH]c3cc(F)cc4c3c2CCNC4=O)cc1 + COC1C(OC(N)=O)C(O)C(Oc2ccc3c(O)c(NC(=O)c4ccc(O)c(CC=C(C)C)c4)c(=O)oc3c2C)OC1(C)C
Resp: < 5.00

---

System: 299254-011-R-J1-PDC complex spheroid viability
Test: Anticancer human tumor 299254-011-R-J1-PDC cell line growth inhibition [POLQ];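 note: spheroids exposed to drugs for one week before measurement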;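 for viability, T/C: percent viability relative to DMSO vehicle control taken as 100%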
Settings: second compound 10 µM; first compound 10 µM; stronger effect = lower value
experimental-readout: viability, T/C (%)
Your answer should be a plain number; it is taken to be in %.

Solved entries (count: 5):
compound: CC1COCCN1c1cc(C2(O)CC3CCC(C2)O3)c2cnn(-c3ccn[nH]3)c2n1 (stereo not given) + Nc1ccc(C#CCN(C(=O)Cc2ncc(C(F)(F)F)cc2C(F)(F)F)c2ccc(F)cc2)nn1
endpoint-unit: %
viability, T/C: 15.5
//
compound: O=C(Nc1ccc(O)c(NS(=O)(=O)c2ccc(F)cc2)c1)c1ccc(-c2ccccc2)cc1 + Nc1ccc(C#CCN(C(=O)Cc2ncc(C(F)(F)F)cc2C(F)(F)F)c2ccc(F)cc2)nn1
endpoint-unit: %
viability, T/C: 50.6
//
compound: O=C(Nc1ccc(O)c(NS(=O)(=O)c2ccc(F)cc2)c1)c1ccc(-c2ccccc2)cc1 + COC1C(OC(N)=O)C(O)C(Oc2ccc3c(O)c(NC(=O)c4ccc(O)c(CC=C(C)C)c4)c(=O)oc3c2C)OC1(C)C
endpoint-unit: %
viability, T/C: 58.4
//
compound: O=C(Nc1ccc(O)c(NS(=O)(=O)c2ccc(F)cc2)c1)c1ccc(-c2ccccc2)cc1 + Cc1cccc(N(C)C(=O)C2C(O)CCN2c2nc(C)cc(C(F)(F)F)c2C#N)c1
endpoint-unit: %
viability, T/C: 45.2
//
compound: COc1ccc([C@@H](O)c2cc(-c3ncnc4cc(N5CCOCC5)ccc34)c(F)cc2Cl)nn1 + COC1C(OC(N)=O)C(O)C(Oc2ccc3c(O)c(NC(=O)c4ccc(O)c(CC=C(C)C)c4)c(=O)oc3c2C)OC1(C)C
endpoint-unit: %
viability, T/C: 44

Req: Param item = CCc1cc2c(N3CCc4c(cc(Cn5ccnc5)cc4-c4cn(C)nc4C(F)(F)F)C3=O)ccnc2c(OC)n1 + Nc1ccc(C#CCN(C(=O)Cc2ncc(C(F)(F)F)cc2C(F)(F)F)c2ccc(F)cc2)nn1 ; retrieve measured viability, T/C.
Resp: 62.2

Req: How about Nc1ccn(C2OC(CO)C(O)C2(F)F)c(=O)n1 (stereo not given) + Cc1cccc(N(C)C(=O)C2C(O)CCN2c2nc(C)cc(C(F)(F)F)c2C#N)c1 ?
Resp: 48.1

Req: And CC1COCCN1c1cc(C2(O)CC3CCC(C2)O3)c2cnn(-c3ccn[nH]3)c2n1 (stereo not given) + COC1C(OC(N)=O)C(O)C(Oc2ccc3c(O)c(NC(=O)c4ccc(O)c(CC=C(C)C)c4)c(=O)oc3c2C)OC1(C)C ?
Resp: 10.2

Req: Moving on to CCc1cc2c(N3CCc4c(cc(Cn5ccnc5)cc4-c4cn(C)nc4C(F)(F)F)C3=O)cc(C)nc2c(OC)n1 + Cc1cccc(N(C)C(=O)C2C(O)CCN2c2nc(C)cc(C(F)(F)F)c2C#N)c1
Resp: 58.6

Req: Same again, this time with CCc1cc2c(N3CCc4c(cc(Cn5ccnc5)cc4-c4cn(C)nc4C(F)(F)F)C3=O)cc(C)nc2c(OC)n1 + Nc1ccc(C#CCN(C(=O)Cc2ncc(C(F)(F)F)cc2C(F)(F)F)c2ccc(F)cc2)nn1
Resp: 61.1

---

System: 299254-011-R-J1-PDC complex spheroid viability
Assay: Anticancer human tumor 299254-011-R-J1-PDC cell line growth inhibition [POLQ];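 note: spheroids exposed to drugs for one week before measurement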;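 for viability, T/C: percent viability relative to DMSO vehicle control taken as 100%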
Details: second compound 0.1 µM; first compound 0.0316 µM; stronger effect = lower value
Description: Multicellular complex tumor spheroid response to Polymerase (POL) inhibitors (novobiocin, ART-558, RP6685) in combination with a variety of drugs and investigational agents in selected tumor cell lines The POL inhibitors (novobiocin, ART-558, and RP6685) were evaluated both individually and in combination with standard of care and investigational anticancer small molecules within a complex spheroid model of solid tumors. . […]
Some molecules, each annotated with its measured viability, T/C.

molecule: COc1cccc(OCCCN)c1-c1cc(Nc2cnc(C#N)cn2)n[nH]1 + Cc1cccc(N(C)C(=O)C2C(O)CCN2c2nc(C)cc(C(F)(F)F)c2C#N)c1
target-under-test: 299254-011-R-J1-PDC complex spheroid viability
viability, T/C: 75.6%
--
molecule: O=C(Nc1ccc(O)c(NS(=O)(=O)c2ccc(F)cc2)c1)c1ccc(-c2ccccc2)cc1 + Nc1ccc(C#CCN(C(=O)Cc2ncc(C(F)(F)F)cc2C(F)(F)F)c2ccc(F)cc2)nn1
target-under-test: 299254-011-R-J1-PDC complex spheroid viability
viability, T/C: 102%

Req: Fill blank: measured viability, T/C of the molecule CC1COCCN1c1cc(C2(S(C)(=N)=O)CC2)nc(-c2ccnc3[nH]ccc23)n1 (stereo not drawn) + Cc1cccc(N(C)C(=O)C2C(O)CCN2c2nc(C)cc(C(F)(F)F)c2C#N)c1 is ____.
Resp: 108%

Ref: PubChem BioAssay AID1963849
